assay: HEK293 cell viability assay (MTT); assay type: cell-based, human; conditions: human; 72 hours, FIG. 21E; conjugate = BC75D; read-out: IC50, HEK293 cytotoxicity
Result Type: IC50 at 72 h (µM)
Field format: number, assumed µM, no unit text.

IC50 at 72 h reading for CCN(CCCC(C)Nc1ccnc2cc(Cl)ccc12)CCOC(=O)CCC(=O)O[C@H]1CC[C@H]2[C@@H]3CC=C4C[C@@H](O)CC[C@]4(C)[C@H]3CC[C@]12C (stereo partly shown) [hydroxychloroquine-steroid conjugate] : 13

---

Assay: HEK293 cell viability assay (MTT)
Type: cell-based, human
Conditions: human, HEK293 cells; 72 hours, FIG. 21E; conjugate = BC75D; read-out: IC50, HEK293 cytotoxicity
Protocol: HEK293 cell viability assays began with 5000 cells per well. 10 μg/mL cycloheximide was used as a no-growth control. Metabolic capacity (indicating viability) was measured by incubation with 0.45 mg/mL methylthiazolyldiphenyl-tetrazolium bromide (MTT; Sigma M2128) for two hours followed by crystal solubilisation in SDS.
Result Type: IC50 at 72 h (µM)
Field format: number, assumed µM, no unit text.

IC50 at 72 h reading for CCN(CCO)CCCC(C)Nc1ccnc2cc(Cl)ccc12 (stereo not shown) [hydroxychloroquine, reference compound] : 38.4

---

assay: HEK293 cell viability assay (MTT); assay type: cell-based, human; conditions: human; 96 hours, FIG. 16H / FIG. 18C; read-out: IC50, HEK293 cytotoxicity
Result Type: IC50 at 96 h (µM)
Field format: number, assumed µM, no unit text.

[[record]]
compound = "CC(C)OC(=O)CCC(=O)O[C@H]1CC[C@H]2[C@@H]3CC=C4C[C@@H](O)CC[C@]4(C)[C@H]3CC[C@]12C"
result_type = "IC50 at 96 h"
measure_unit = "µM"
value_reported = 43.6


IC50 at 96 h reading for COc1cc(NC(C)CCCN)c2ncccc2c1 (centres unmarked) [primaquine, reference compound] : 10.6

---

test: HEK293 cell viability assay (MTT); assay type: cell-based, human; conditions: human, HEK293 cells; 96 hours, FIG. 16H / FIG. 18C; read-out: IC50, HEK293 cytotoxicity
Result Type: IC50 at 96 h (µM)
Field format: number, assumed µM, no unit text.

IC50 at 96 h reading for COc1cc(NC(C)CCCNC(=O)CCC(=O)OC(C)C)c2ncccc2c1 (stereo not shown) [prim-link, Propan-2-yl succinate-primaquine amide] : 13.3
